Species: Rattus norvegicus
Assay: Open TG-GATES - Regimen: Daily Repeat
Assay type: toxicity, organism-based, Sprague-Dawley
Design: regimen Daily Repeat, gender Male, age 6 weeks
Details: in vivo, po, 100 mg/kg, 72 h, tissue Blood, route gavage, dose level Low, time 3 day
Below: a set of entries, each annotated with reported Mono.

Item smiles	Mono / %
CNC(=C[N+](=O)[O-])NCCSCc1ccc(CN(C)C)o1	2.6
CCOc1ccc(NC(C)=O)cc1	2.6
Cc1nnc2n1-c1ccc(Cl)cc1C(c1ccccc1Cl)=NC2	3.8
O=C(OC[C@H]1O[C@@H](OC(=O)c2cc(O)c(O)c(OC(=O)c3cc(O)c(O)c(O)c3)c2)[C@H](OC(=O)c2cc(O)c(O)c(OC(=O)c3cc(O)c(O)c(O)c3)c2)[C@@H](OC(=O)c2cc(O)c(O)c(OC(=O)c3cc(O)c(O)c(O)c3)c2)[C@@H]1OC(=O)c1cc(O)c(O)c(OC(=O)c2cc(O)c(O)c(O)c2)c1)c1cc(O)c(O)c(OC(=O)c2cc(O)c(O)c(O)c2)c1	12.2
CN/C(=N/CCSCc1nc[nH]c1C)NC#N	2.6
COC(=O)C1=C(C)NC(C)=C(C(=O)OC)C1c1ccccc1[N+](=O)[O-]	3.4

====

Species on record: Rattus norvegicus
Experiment: Open TG-GATES - Regimen: Daily Repeat
Format: toxicity, organism-based, Sprague-Dawley
Parameters: regimen Daily Repeat, gender Male, age 6 weeks
Settings: in vivo, po, 100 mg/kg, […], tissue Blood, route gavage, dose level Low, time 28 day
Below: a set of entries, each annotated with reported APTT.

Item smiles	Units text	APTT
O=C(OC[C@H]1O[C@@H](OC(=O)c2cc(O)c(O)c(OC(=O)c3cc(O)c(O)c(O)c3)c2)[C@H](OC(=O)c2cc(O)c(O)c(OC(=O)c3cc(O)c(O)c(O)c3)c2)[C@@H](OC(=O)c2cc(O)c(O)c(OC(=O)c3cc(O)c(O)c(O)c3)c2)[C@@H]1OC(=O)c1cc(O)c(O)c(OC(=O)c2cc(O)c(O)c(O)c2)c1)c1cc(O)c(O)c(OC(=O)c2cc(O)c(O)c(O)c2)c1	s	15.9
CN/C(=N/CCSCc1nc[nH]c1C)NC#N	s	19.7
CNC(=C[N+](=O)[O-])NCCSCc1ccc(CN(C)C)o1	s	20.9
COC(=O)C1=C(C)NC(C)=C(C(=O)OC)C1c1ccccc1[N+](=O)[O-]	s	17.6
CCOc1ccc(NC(C)=O)cc1	s	18.4
Cc1nnc2n1-c1ccc(Cl)cc1C(c1ccccc1Cl)=NC2	s	17.1

====

Species on record: Rattus norvegicus
Assay: Open TG-GATES - Regimen: Single
Format: toxicity, organism-based, Sprague-Dawley
Set-up: regimen Single, gender Male, age 6 weeks
Conditions: in vivo, po, 0 mg/kg, 3 h, tissue Blood, route gavage, dose level Control

Compound	RBC, x10_4/ul
CN(C)CCC(c1ccc(Cl)cc1)c1ccccn1 (stereo not drawn) [CHLORPHENIRAMINE]	606.2
O=C(OC[C@H]1O[C@@H](OC(=O)c2cc(O)c(O)c(OC(=O)c3cc(O)c(O)c(O)c3)c2)[C@H](OC(=O)c2cc(O)c(O)c(OC(=O)c3cc(O)c(O)c(O)c3)c2)[C@@H](OC(=O)c2cc(O)c(O)c(OC(=O)c3cc(O)c(O)c(O)c3)c2)[C@@H]1OC(=O)c1cc(O)c(O)c(OC(=O)c2cc(O)c(O)c(O)c2)c1)c1cc(O)c(O)c(OC(=O)c2cc(O)c(O)c(O)c2)c1 [TANNIC ACID]	573
NC1=NC(=O)C(c2ccccc2)O1 (stereo not drawn) [PEMOLINE]	609.4
CCCc1cc(=O)[nH]c(=S)[nH]1 [PROPYLTHIOURACIL]	593.2
CN/C(=N/CCSCc1nc[nH]c1C)NC#N [CIMETIDINE]	598.4
Nc1c2c(nc3ccccc13)CCCC2 [TACRINE]	614.4
COC(=O)C1=C(C)NC(C)=C(C(=O)OC)C1c1ccccc1[N+](=O)[O-] [NIFEDIPINE]	641.4
CC(C)NNC(=O)c1ccncc1 [IPRONIAZID]	624.6

====

Below: a set of entries, each annotated with reported Ca.
Organism: Rattus norvegicus
Assay: Open TG-GATES - Regimen: Single
Type: toxicity, organism-based, Sprague-Dawley
Design: regimen Single, gender Male, age 6 weeks
Details: in vivo, po, 300 mg/kg, 6 h, tissue Plasma, route gavage, dose level Middle
Measured parameter: Ca (mg/dL)

Compound	Measured parameter	Number
CNC(=C[N+](=O)[O-])NCCSCc1ccc(CN(C)C)o1 [RANITIDINE]	Ca	10.4
O=C(OC[C@H]1O[C@@H](OC(=O)c2cc(O)c(O)c(OC(=O)c3cc(O)c(O)c(O)c3)c2)[C@H](OC(=O)c2cc(O)c(O)c(OC(=O)c3cc(O)c(O)c(O)c3)c2)[C@@H](OC(=O)c2cc(O)c(O)c(OC(=O)c3cc(O)c(O)c(O)c3)c2)[C@@H]1OC(=O)c1cc(O)c(O)c(OC(=O)c2cc(O)c(O)c(O)c2)c1)c1cc(O)c(O)c(OC(=O)c2cc(O)c(O)c(O)c2)c1 [TANNIC ACID]	Ca	10.6
CN/C(=N/CCSCc1nc[nH]c1C)NC#N [CIMETIDINE]	Ca	10.4
Cc1nnc2n1-c1ccc(Cl)cc1C(c1ccccc1Cl)=NC2 [TRIAZOLAM]	Ca	11.2
COC(=O)C1=C(C)NC(C)=C(C(=O)OC)C1c1ccccc1[N+](=O)[O-] [NIFEDIPINE]	Ca	11.3

====

Organism: Rattus norvegicus
Assay: Open TG-GATES - Regimen: Daily Repeat
Format: toxicity, organism-based, Sprague-Dawley
Set-up: regimen Daily Repeat, gender Male, age 6 weeks
Settings: in vivo, po, 1000 mg/kg, […], tissue Blood, route gavage, dose level High, time 14 day
Measured parameter: MCHC (%)

Item smiles	Measured parameter	Number
O=C(OC[C@H]1O[C@@H](OC(=O)c2cc(O)c(O)c(OC(=O)c3cc(O)c(O)c(O)c3)c2)[C@H](OC(=O)c2cc(O)c(O)c(OC(=O)c3cc(O)c(O)c(O)c3)c2)[C@@H](OC(=O)c2cc(O)c(O)c(OC(=O)c3cc(O)c(O)c(O)c3)c2)[C@@H]1OC(=O)c1cc(O)c(O)c(OC(=O)c2cc(O)c(O)c(O)c2)c1)c1cc(O)c(O)c(OC(=O)c2cc(O)c(O)c(O)c2)c1	MCHC	33.4
CNC(=C[N+](=O)[O-])NCCSCc1ccc(CN(C)C)o1	MCHC	36.1
CN/C(=N/CCSCc1nc[nH]c1C)NC#N	MCHC	32.6
Cc1nnc2n1-c1ccc(Cl)cc1C(c1ccccc1Cl)=NC2	MCHC	32.6
COC(=O)C1=C(C)NC(C)=C(C(=O)OC)C1c1ccccc1[N+](=O)[O-]	MCHC	33.5
CCOc1ccc(NC(C)=O)cc1	MCHC	32

====

Below: a set of entries, each annotated with reported PT.
Organism: Rattus norvegicus
Experiment: Open TG-GATES - Regimen: Single
Type: toxicity, organism-based, Sprague-Dawley
Design: regimen Single, gender Male, age 6 weeks
Conditions: in vivo, po, 0 mg/kg, 3 h, tissue Blood, route gavage, dose level Control
Measured parameter: PT (s)

Compound	Number
Brc1ccccc1	12.4
CN(C)CCC(c1ccc(Cl)cc1)c1ccccn1 (stereo not drawn)	14.7
CCOc1ccc(NC(C)=O)cc1	13.7
Cc1nnc2n1-c1ccc(Cl)cc1C(c1ccccc1Cl)=NC2	13.6
CCCc1cc(=O)[nH]c(=S)[nH]1	12.6
NC1=NC(=O)C(c2ccccc2)O1 (stereo not drawn)	13.4
CN1C(=O)CCS(=O)(=O)C1c1ccc(Cl)cc1 (stereo not drawn)	13.1
CNC(=C[N+](=O)[O-])NCCSCc1ccc(CN(C)C)o1	12.4
CN/C(=N/CCSCc1nc[nH]c1C)NC#N	12.6
O=C(OC[C@H]1O[C@@H](OC(=O)c2cc(O)c(O)c(OC(=O)c3cc(O)c(O)c(O)c3)c2)[C@H](OC(=O)c2cc(O)c(O)c(OC(=O)c3cc(O)c(O)c(O)c3)c2)[C@@H](OC(=O)c2cc(O)c(O)c(OC(=O)c3cc(O)c(O)c(O)c3)c2)[C@@H]1OC(=O)c1cc(O)c(O)c(OC(=O)c2cc(O)c(O)c(O)c2)c1)c1cc(O)c(O)c(OC(=O)c2cc(O)c(O)c(O)c2)c1	11.7
Nc1c2c(nc3ccccc13)CCCC2	16.3
COC(=O)C1=C(C)NC(C)=C(C(=O)OC)C1c1ccccc1[N+](=O)[O-]	14.8
CC(C)NNC(=O)c1ccncc1	16.4

====

Organism: Rattus norvegicus
Test: Open TG-GATES - Regimen: Single
Type: toxicity, organism-based, Sprague-Dawley
Parameters: regimen Single, gender Male, age 6 weeks
Details: in vivo, po, 0 mg/kg, 9 h, tissue Plasma, route gavage, dose level Control
Kindly apply the following: rule met if ALT is less than 40 IU/L, rule not met in every other case.

Compound	Assigned label
Nc1c2c(nc3ccccc13)CCCC2 [TACRINE]	rule met
COC(=O)C1=C(C)NC(C)=C(C(=O)OC)C1c1ccccc1[N+](=O)[O-] [NIFEDIPINE]	rule met
NC1=NC(=O)C(c2ccccc2)O1 (stereo not drawn) [PEMOLINE]	rule not met
CN1C(=O)CCS(=O)(=O)C1c1ccc(Cl)cc1 (stereo not drawn) [CHLORMEZANONE]	rule met
CN/C(=N/CCSCc1nc[nH]c1C)NC#N [CIMETIDINE]	rule met
Brc1ccccc1 [BROMOBENZENE]	rule met
CC(C)NNC(=O)c1ccncc1 [IPRONIAZID]	rule not met
O=C(OC[C@H]1O[C@@H](OC(=O)c2cc(O)c(O)c(OC(=O)c3cc(O)c(O)c(O)c3)c2)[C@H](OC(=O)c2cc(O)c(O)c(OC(=O)c3cc(O)c(O)c(O)c3)c2)[C@@H](OC(=O)c2cc(O)c(O)c(OC(=O)c3cc(O)c(O)c(O)c3)c2)[C@@H]1OC(=O)c1cc(O)c(O)c(OC(=O)c2cc(O)c(O)c(O)c2)c1)c1cc(O)c(O)c(OC(=O)c2cc(O)c(O)c(O)c2)c1 [TANNIC ACID]	rule met
